Property: inhibition at 1 µM; scope: individual compounds
- tested.system: L-glutaminase present in mice brain homogenate (Glutaminase(Brain)) (Mus musculus, UniProt D3Z7P3)
- Sequence (D3Z7P3 55-674): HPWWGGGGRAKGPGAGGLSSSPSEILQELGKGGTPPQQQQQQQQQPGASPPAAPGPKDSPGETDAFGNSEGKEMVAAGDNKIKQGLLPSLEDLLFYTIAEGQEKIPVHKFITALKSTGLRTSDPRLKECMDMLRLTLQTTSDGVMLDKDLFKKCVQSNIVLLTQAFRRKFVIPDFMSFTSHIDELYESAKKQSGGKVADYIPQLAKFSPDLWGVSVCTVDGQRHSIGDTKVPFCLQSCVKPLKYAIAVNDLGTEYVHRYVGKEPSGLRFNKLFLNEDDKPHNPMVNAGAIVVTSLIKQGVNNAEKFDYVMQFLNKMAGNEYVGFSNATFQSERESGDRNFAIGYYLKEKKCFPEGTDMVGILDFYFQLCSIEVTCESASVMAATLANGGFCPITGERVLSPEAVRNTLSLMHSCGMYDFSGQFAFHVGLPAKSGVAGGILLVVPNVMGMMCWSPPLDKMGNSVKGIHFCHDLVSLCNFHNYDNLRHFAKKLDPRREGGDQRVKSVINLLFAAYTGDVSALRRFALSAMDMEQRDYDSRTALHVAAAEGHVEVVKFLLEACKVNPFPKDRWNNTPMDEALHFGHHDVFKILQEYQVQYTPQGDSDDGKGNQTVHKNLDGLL
- run.description: Glutaminase enzyme activity using glutaminase enzyme from mice brain/kidney homogenate (Nessler's reagent, ammonia)
- Assay type: biochemical
- experimental.conditions: 1 μM; mice brain homogenate; read-out: Glutaminase(Brain) activity % inhibition @1 μM

O=C(Cc1cccc(OC(F)(F)F)c1)Nc1ccc(CCCCc2nnc(NC(=O)Cc3cccc(OC(F)(F)F)c3)s2)cn1 ... 50 to 75%
O=C(Cc1cccc(OC(F)(F)F)c1)Nc1ccc(CC2CC(c3nnc(NC(=O)Cc4ccccn4)s3)C2)cn1 (stereo not shown) ... 50 to 75%
O=C(Cc1cccc(OC(F)(F)F)c1)Nc1nnc(CC2CCC(Cc3nnc(NC(=O)Cc4cccc(OC(F)(F)F)c4)s3)CC2)s1 (stereo not shown) ... < 25%

# next compound below
Data request, read-out inhibition at 1 µM, for O=C(Cc1ccncc1)Nc1ccc(CCCCc2nnc(NC(=O)Cc3cccc(OC(F)(F)F)c3)s2)cn1
50 to 75%
